In this section we review reported soluble fraction (log2) values for a set of sequences.
- assay: soluble fraction after stress (log2 fold change); higher = more stays soluble; pooled small domains, quantitative proteomics
- study_conditions: stress: pH 4

{"columns": ["seq", "soluble fraction (log2)"],
 "data": [
  ["HMLQIGDEEFIENIVKQVIDENQKAVDDYKKGKEKVMAFLIGQVMKKTKGKVNSEIVEKTIKKL", -0.565],
  ["HMTVIARQIPPLVPRMLDGLEAFIKLDVPFEEKERLARVQMLRSSLDRDNLDTAEIFRAVLEAYNIELQY", 0.195],
  ["HMETFGLSQRELQILSQLHKGQPLKEFAASLFITESTLKTHLSAIYRKMSVKNRVQAIEKAKQSGL", -0.273],
  ["HMKRGDAYASEMIARLKEAHLIVMEGTLYPLLTRLKNDGLLSYRWEESTQGPPRKYYSITPVG", -0.081]
]}
